The reported measurements were obtained from PubChem BioAssay (NCI).

tested on: SK-OV-3 ovarian; assay: NCI tumour cell line growth inhibition, 48 h
Could you please report measured TGI for the items listed next?

NC(CCCC(N)P(=O)(O)O)C(=O)O (stereo not given) : > 100 µM
CCCCC(SC(=S)N1CCCC1)C(=O)Nc1nc(CC(=O)OCC)cs1 (stereo not given) : > 100 µM
Cc1ccc(/C=C(\C#N)c2cc3ccccc3n2C)cc1 : > 100 µM
C[N+]1=c2c3cccc4cccc(c(=O)n2CC1)c43 : 93.8 µM

Kindly consider the entry below.
Exercise: Form field: reported TGI of CC(C)(C)OC(=O)N/C(C=O)=C\C1CCCCC1
Solution: > 100 µM

* * *

test system: NCI-H23 lung; assay: NCI tumour cell line growth inhibition, 48 h
valueKind: TGI

Cc1cc2c(c(C(N)=O)c1C)-c1cccc(F)c1C2=O : > 100 µM
Cc1cc(-n2nnc(C(=O)O)c2-c2ccccc2)c2ccc(Cl)cc2n1 : > 100 µM
C/C(=C\c1ccn(-c2ccccc2N)n1)[C@@H]1C[C@@H]2O[C@]2(C)CCC[C@H](C)[C@H](O)[C@@H](C)C(=O)C(C)(C)[C@@H](O)CC(=O)O1 : > 50 µM

Exercise: Form field: reported TGI of O=C(/C=C(\O)C(=O)O)/C=C(\O)c1ccccc1
Solution: > 100 µM

* * *

test system: SW-620 colon; test: NCI tumour cell line growth inhibition, 48 h; in the data active means GI50 below about 0.43 µM; inactive means the rest
Select the correct class. Options are label 1 = active, label 0 = inactive and nothing else.

Solved cases (7 shown):
CC1=CC2C(C(O)CC3(C)C2CC(C)C32OCOC23COCO3)C2(C)C/C(=C/O)C(=O)C=C12 (stereo not drawn) : label 0
CCC(=O)N1C/C(=C/c2ccc(Cl)cc2)C(=O)/C(=C/c2ccc(Cl)cc2)C1 : label 1
CCCCC(SC(=S)N1CCCC1)C(=O)Nc1nc(CC(=O)OCC)cs1 (stereo not drawn) : label 0
Oc1c(C(Nc2ccccc2Br)c2ccccc2)ccc2cccnc12 (stereo not drawn) : label 0
CO/N=C(\COc1ccc2c(=O)c3ccccc3oc2c1)c1ccccc1 : label 0
Fc1ccc(-c2ncn(C3CCNCC3)c2-c2ccnc(Oc3ccc4c(c3)OCO4)n2)cc1 : label 0
O=C(CCN1CCCC1)Nc1ccc2c(NCc3ccccc3)c3ccccc3nc2c1 : label 1

Exercise: // return assay outcome for COc1ccc2c(c1)/C(=C\c1ccncc1)C(=O)N2
Solution: label 0

* * *

system: MOLT-4 leukemia; test: NCI tumour cell line growth inhibition, 48 h
Could you please report measured TGI for the items listed next?

CC(C)C1CO[C@]2(C)CCC(=O)N12 (stereo partly drawn) : > 100 µM

Give measured TGI for every item shown.
1. Nc1ccn(C2CC(F)C(CO)O2)c(=O)n1 (stereo not drawn)
2. COC1C(OC(=O)c2ccc(C)[nH]2)C(O)C(Oc2ccc3c(O)c(NC(=O)c4c[nH]c(C(=O)Nc5c(O)c6ccc(OC7OC(C)(C)C(OC)C(OC(=O)c8ccc(C)[nH]8)C7O)c(C)c6oc5=O)c4C)c(=O)oc3c2C)OC1(C)C (stereo not drawn)

Solution:
1. > 100 µM
2. 8.47 µM

* * *

system: OVCAR-3 ovarian; assay: NCI tumour cell line growth inhibition, 48 h
valueKind: GI50

Worked examples follow.
COc1ccc2c(c1)/C(=C\c1ccncc1)C(=O)N2 : 10.4 µM
COc1ccc(C(=O)Cn2c(C(=O)c3ccccc3)nc3ccccc32)cc1 : 2.59 µM

Kindly consider the entry below.
Exercise: Form field: reported GI50 of c1ccc(-c2nn3c(c2-c2ccnc4cc(OCCN5CCOCC5)ccc24)CCC3)nc1
Solution: > 69.9 µM
